Data provenance is PubChem BioAssay (NCI).

Tested on: M14 melanoma
protocol.summary: NCI-60 one-dose screen, 48 h
condition.parameters: 10 µM
Description: Growth inhibition of the M14 human tumor cell line is measured as a screen for anti-cancer activity. Cells are grown in 96 well plates and exposed to the test compound for 48 hours. Compounds are tested at a single concentration, which is 10^-5 M for most compounds. The reported endpoint is percent growth (GI% or GIPRCNT), where numbers from 0 - 100% represent growth inhibition, and numbers from -100% - 0 represent cell death. For example, a value of 40 represents 60% growth inhibition. […]
About 83,000 compounds went through this panel and 20% of them were active in at least one assay; those are over-represented in the sample as a whole. Calls of active or inactive are those of the source. Rule for the calls: active = growth percent below 10; inactive = the rest.
Lab note: assign the record to one of active, inactive

Cn1cc(-c2nnc(N)nc2-c2c[nH]c3ccc(F)cc23)c2cc(Br)cnc21 :: inactive

Recorded call for COc1ccc(OC)c(-n2cc(C#N)c(N)c2C(=O)c2ccc(Cl)cc2Cl)c1 ?
inactive

Query COc1ccc(C(=O)COc2ccc(NC(=O)Nc3ccc(Cl)c(C(F)(F)F)c3)cc2)cc1 next
inactive

Query COc1ccc(Cc2nn(CC(=O)N/N=C/c3ccc(Br)cc3)c(=O)c3c(C)noc23)cc1 next
inactive

Query O=C(c1ccccc1)c1ccc2nc(-c3ccccc3Br)[nH]c2c1 next
active

Query Fc1ccc(-c2csc(Nc3cccc(Nc4nc(-c5ccc(F)cc5)cs4)c3)n2)cc1 next
inactive

----------
Tested on: MDA-MB-468 breast
protocol.summary: NCI-60 one-dose screen, 48 h (100 = growth as untreated, 0 = no growth, -100 = all killed)
condition.parameters: 10 µM unless noted
The panel holds about 83,000 compounds, 20% with a hit somewhere; the sample as a whole holds those more often.
Each item that follows carries a reported growth.
Reply with just the number (in %).

Using the record for CN1C(=O)N(C)C2C1NN=c1s/c(=C\c3ccc(C(F)(F)F)cc3)c(=O)n12 (centres undefined) , report its growth.
-2.71

Query COc1cc(/C=C/c2cc(/C=C/c3ccc(O)c(OC)c3)n(C(=O)Cc3ccccc3)n2)ccc1O next
-4.29

Query Cn1cc(-c2csc(-c3cn(CCO)c4ccc(F)cc34)n2)c2cccnc21 next
-16.5

Query CCCCCCCCCCCCCC(=S)NCCCC[C@H](NC(=O)OCc1ccccc1)C(=O)Nc1ccccc1 next
27.1

Query N#Cc1c(-c2ccc(Cl)cc2)nc(NN=Cc2cccc(O)c2)nc1N1CCOCC1 next
87.4

Query Cn1ncc2ccc(-c3nc(-c4ccccc4)[nH]c3-c3n[nH]c(=O)n3C3CC3)cc21 next
104

Query COc1ccc(NC(=O)c2cccc(-c3cc(=O)c4c(O)c(OC)c(OC)cc4o3)c2)cc1 next
84.3

----------
Tested on: MDA-MB-468 breast
protocol.summary: NCI-60 one-dose screen, 48 h (100 = growth as untreated, 0 = no growth, -100 = all killed)
condition.parameters: 10 µM unless noted
This is part of a sample that, as a whole, favours compounds with a hit. Of some 83,000 tested, about 20% had one in any assay.
Condition met if growth is below 70%. Condition not met if not; exact matches included in Condition not met.

// known answers, use as guide
COC(=O)/C(=C\c1c(C)[nH]c2ccccc12)S(=O)(=O)c1ccccc1 :: Condition met
Cc1ccc(C(=O)/C(=C/c2ccc([N+](=O)[O-])cc2)S(=O)Cc2ccccc2)cc1 (stereo not given) :: Condition met
COC(=O)c1c2c(c[n+]([O-])c1C)C(=O)C(NCc1ccccc1)=CC2=O :: Condition met
O=C1NC(=O)/C(=C/C=C/c2ccccc2)S1 :: Condition met

Problem: For the compound CCN(CC)c1ccc(/C=C(\C#N)c2cc3ccccc3[nH]2)cc1 , is growth under 70%?
Condition met

Query O=c1[nH]c(=O)n(C2C[C@H](O)[C@@H](CO)O2)cc1C(F)(F)F (stereo not given in full) next
Condition not met

Query COc1cnc2c(c1)C(=O)c1c-2n(CCCN2CCN(CCO)CC2)c(=O)c2cc([N+](=O)[O-])ccc12 next
Condition not met

Query O=C(C[n+]1ccccc1)c1ccc2ccccc2c1 next
Condition not met

----------
Each item that follows carries a reported growth.
Test system: MALME-3M melanoma
protocol.summary: NCI-60 one-dose screen, 48 h (100 = growth as untreated, 0 = no growth, -100 = all killed)
condition.parameters: 10 µM
Compounds without any hit were thinned out: in the full panel of roughly 83,000, 20% have a hit.
Reply with just the number (in %).

Using the record for Fc1ccc(-c2csc(Nc3cccc(Nc4nc(-c5ccc(F)cc5)cs4)c3)n2)cc1 , report its growth.
83

Query O=C(Nc1ccc(OCc2ccc(F)cc2)cc1)Nc1ccc(Cl)c(C(F)(F)F)c1 next
-10.2

----------
Tested on: IGROV1 ovarian
protocol.summary: NCI-60 one-dose screen, 48 h (100 = growth as untreated, 0 = no growth, -100 = all killed)
condition.parameters: 10 µM
About 83,000 compounds went through this panel and 20% of them were active in at least one assay; those are over-represented in the sample as a whole.
property.name: growth (%)
Reply with just the number (in %).

The examples below pair each entry with its known result.
COc1ccccc1-n1cc(C#N)c(N)c1C(=O)c1ccc(Cl)cc1Cl :: 38
O=C(CC(=O)Nc1ccc(Oc2ncnc3scc(Nc4n[nH]c(=S)s4)c23)cc1)Nc1ccc(Br)cc1 :: 106
COC(=O)CNC(=O)COc1c(OC)c(OC)cc2oc(-c3cccc(C(=O)Nc4ccc(Cl)cc4)c3)cc(=O)c12 :: 58.4

Proceeding to the next compound to report its growth.
Using the record for C#C[C@]1(O)CC[C@H]2[C@@H]3CC=C4c5sc(Nc6cc(C)cc(C)n6)nc5CC[C@]4(C)[C@H]3CC[C@@]21C , report its growth.
26.2

----------
System: MDA-MB-468 breast
protocol.summary: NCI-60 one-dose screen, 48 h (100 = growth as untreated, 0 = no growth, -100 = all killed)
condition.parameters: 10 µM unless noted
Compounds without any hit were thinned out: in the full panel of roughly 83,000, 20% have a hit.
property.name: growth (%)
Reply with just the number (in %).

CC1=C([Se]CC(OC(=O)CC[Se]c2ccccc2)C(=O)NCCCCCC(=O)OCc2ccccc2)C(=O)c2ccccc2C1=O (centres undefined) :: -7.59
Clc1ccc(/C=C/c2nc(Nc3ccc(Cl)cc3)c3ccccc3n2)cc1 :: 110
COc1cc([C@@H]2c3cc4c(cc3C(Br)[C@H]3COC(=O)[C@H]23)OCO4)cc(OC)c1OC (some centres undefined) :: -49.3
O=CN1N=C(c2cccc(Nc3ccncc3)c2)CC1c1ccc2c(c1)OCO2 (centres undefined) :: 88.7
O=C(Nc1cccc2[nH]c(C(F)(F)F)nc12)c1ccc(F)cc1 :: 65.6
NS(=O)(=O)c1ccc(CCn2c(SCC(=O)c3ccc(Cl)cc3)nc3ccccc3c2=O)cc1 :: 105
CCO/C=N/C1=C(C#N)C(c2ccc(Cl)cc2)c2c(c3ccc(C)cc3[nH]c2=O)O1 (centres undefined) :: 96.8
Cc1cccc(NC(c2cc3cccc4ccc5cccc2c5c43)c2nnnn2C(C)(C)C)c1C (centres undefined) :: -10.3
C[n+]1c(/C=C\C=C\N2CCCCC2)sc2ccccc21 :: -17
CC1=C(C)C(=O)C(Nc2cccc(C(F)(F)F)c2)=C(Br)C1=O :: -61.4

Using the record for C=CC(=O)N[C@@H](/C=C/C(=O)OCC)Cc1ccc(-c2cc(Cl)cc(Cl)c2)cc1 , report its growth.
1.83

Query O=C(Oc1ccccc1)c1ccccc1Cl next
102

Query Cc1ccc(Nc2oc(-c3ccccc3)nc2[P+](c2ccccc2)(c2ccccc2)c2ccccc2)cc1 next
-77.1

Query O=C1c2ccccc2CCC12OC2c1cn(-c2ccccc2)nc1-c1ccc(Cl)cc1 (centres undefined) next
92.5

Query CCCCCC(=O)Oc1ccc(/C(=C(\C)c2ccc(OC)cc2)c2ccc(OCCN3CCCCC3)cc2)cc1 next
85.3

Query C=C1C(=O)O[C@H]2[C@H]1CC/C(COC(=O)NCCc1c[nH]c3ccc(Cl)cc13)=C\CC[C@@]1(C)O[C@@H]21 next
-59

Query O=C(CSc1nnc(-c2ccc3nc(-c4ccccc4)[nH]c3c2)o1)Nc1ccc(C(=O)/C=C/c2ccccc2)cc1 next
112

Query O=[N+]([O-])c1ccc(NC(c2ccccc2)c2ccc3cccnc3c2O)cc1 (centres undefined) next
-28.9

Query CCOC(=O)C1CCCN1C(=O)C1(NC(C)=O)CCCC1 (centres undefined) next
98.9

----------
Each item that follows carries a reported growth.
System: TK-10 renal
protocol.summary: NCI-60 one-dose screen, 48 h (100 = growth as untreated, 0 = no growth, -100 = all killed)
condition.parameters: 10 µM
About 83,000 compounds went through this panel and 20% of them were active in at least one assay; those are over-represented in the sample as a whole.
Reply with just the number (in %).

The examples below pair each entry with its known result.
O=C(CN1CCN(c2ncnc3c2cnn3-c2ccccc2)CC1)Nc1ccc(Cl)cc1 :: 97.3
Nc1nnc(-c2c[nH]c3ncc(Br)cc23)c(-c2c[nH]c3ccc(Br)cc23)n1 :: 67.8
O=[N+]([O-])c1cccc(-c2nnc3c(/C=C/c4ccccc4O)nc4ccccc4n23)c1 :: 112

Using the record for COc1ccc(C2OC[C@@]3(C)C4CC[C@]5(C)C(CC=C6C7CC(C)(C)CC[C@]7(C(=O)O)CC[C@]65C)[C@@]4(C)C[C@@H](O)[C@@H]3O2)cc1 (some centres undefined) , report its growth.
76
